Target: T1, native IHFNTHI (integration host factor of nontypeable Haemophilus influenzae) (nontypeable Haemophilus influenzae …, UniProt P43723 1-96; P43724 1-94)
T1 construct: also called NTHI IHF
T1 sequence 1: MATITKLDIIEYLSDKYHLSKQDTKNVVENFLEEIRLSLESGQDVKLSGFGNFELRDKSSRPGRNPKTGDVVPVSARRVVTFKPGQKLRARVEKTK
T1 sequence 2: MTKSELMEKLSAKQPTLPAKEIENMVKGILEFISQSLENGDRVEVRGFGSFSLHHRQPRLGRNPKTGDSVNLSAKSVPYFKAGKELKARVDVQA
Experiment: SPR Biacore 3000, IHFNTHI immobilized, HuMab as analyte
Each entry below carries its reported koff.
The reply should contain only the number, in s⁻¹.

Answered examples (2):
| binder | unit_info | koff |
| --- | --- | --- |
| humanized anti-tip monoclonal antibody, heavy chain SEQ ID NO: 1 and light chain SEQ ID NO: 9 (antibody, V domains shown, also called H10210 (1F8.F1 Humanized HC1) + L10212 (1F8.F1 Humanized LC3)) VH: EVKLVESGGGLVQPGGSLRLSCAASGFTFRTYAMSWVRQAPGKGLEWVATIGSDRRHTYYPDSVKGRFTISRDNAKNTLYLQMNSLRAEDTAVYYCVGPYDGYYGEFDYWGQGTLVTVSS VL: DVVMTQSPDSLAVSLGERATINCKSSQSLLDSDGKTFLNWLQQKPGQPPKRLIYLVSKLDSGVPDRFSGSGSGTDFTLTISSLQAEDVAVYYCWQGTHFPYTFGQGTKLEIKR | s⁻¹ | 0.16 |
| humanized anti-tip monoclonal antibody, heavy chain SEQ ID NO: 3 and light chain SEQ ID NO: 8 (antibody, V domains shown, also called H10212 (1F8.F1 Humanized HC3) + L10211 (1F8.F1 Humanized LC2)) VH: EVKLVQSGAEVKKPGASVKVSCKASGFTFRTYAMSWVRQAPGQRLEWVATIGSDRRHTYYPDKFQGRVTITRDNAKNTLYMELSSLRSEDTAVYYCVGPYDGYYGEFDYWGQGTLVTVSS VL: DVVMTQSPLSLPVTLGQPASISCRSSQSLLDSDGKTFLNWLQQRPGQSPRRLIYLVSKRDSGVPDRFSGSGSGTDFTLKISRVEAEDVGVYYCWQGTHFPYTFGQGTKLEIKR | s⁻¹ | 0.00021 |

Attention now shifts to the item below.
Entry humanized anti-tip monoclonal antibody, heavy chain SEQ ID NO: 2 and light chain SEQ ID NO: 7 (antibody, V domains shown, also called H10211 (1F8.F1 Humanized HC2) + L10210 (1F8.F1 Humanized LC1)) VH: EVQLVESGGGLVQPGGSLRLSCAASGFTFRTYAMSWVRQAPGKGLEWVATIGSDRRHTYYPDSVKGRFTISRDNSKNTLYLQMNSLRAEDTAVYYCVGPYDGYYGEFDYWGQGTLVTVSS VL: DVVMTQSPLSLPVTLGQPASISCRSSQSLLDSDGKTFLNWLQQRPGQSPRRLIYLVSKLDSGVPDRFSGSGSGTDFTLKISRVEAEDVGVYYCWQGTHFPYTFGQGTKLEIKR has what koff?
0.0014
